TEST_TARGET: the molecule itself
MEASUREMENT_PROTOCOL: homodimerization; non-reducing SDS-PAGE and western blot; the number is the monomer share
MEASURED_ENDPOINT: percent monomeric

Prompt: I am curious: what percent monomeric value has been reported for muOPG [22-401] C195S (receptor) ETLLPKYLHYDPETGHQLLCDKCAPGTYLKQHCTVRRKTLCVPCPDHSYTDSWHTSDECVYCSPVCKELQSVKQECNRTHNRVCECEEGRYLEIEFCLKHRSCPPGSGVVQAGTPERNTVCKKCPDGFFSGETSSKAPCIKHTNCSTFGLLLIQKGNATHDNCCSGNREATQKSGIDVTLCEEAFFRFAVPTKIIPNWLSVLVDSLPGTKVNAESVERIKRRHSSQEQTFQLLKLWKHQNRDQEMVKKIIQDIDLCESSVQRHLGHSNLTTEQLLALMESLPGKKISPEEIERTRKTCKSSEQLLKLLSLWRIKNGDQDTLKGLMYALKHLKTSHFPKTVTHSLRKTMRFLHSFTMYRLYQKLFLEMIGNQVQSVKISCL ?
Completion: > 90%
